The reported numbers originate from patent US11786584B2.

Test system: HLA-A*24
methodDescription: MHC binding assay by UV-ligand exchange and beta2m ELISA
Parameters: species or system human
conditionParameters: peptide exchange yield
parameter: Peptide exchange

{"substance": "54 (AYSEKVTEF; listed as Homo sapiens) [compound 54]", "Peptide exchange": "+++ (>50 = +++)"}
{"substance": "34 (AFSPDSHYLLF; listed as Homo sapiens) [compound 34]", "Peptide exchange": "+++ (>50 = +++)"}
{"substance": "30 (SYSPAHARL; listed as Homo sapiens) [compound 30]", "Peptide exchange": "+++ (>50 = +++)"}
{"substance": "41 (RYLQKIEEF; listed as Homo sapiens) [compound 41]", "Peptide exchange": "+++ (>50 = +++)"}

Inquiry: Find the recorded Peptide exchange belonging to 24 (SYNDALLTF; listed as Homo sapiens) [compound 24] and report it.
Reply text: +++ (>50 = +++)

Inquiry: Find the recorded Peptide exchange belonging to 29 (RYGSPINTF; listed as Homo sapiens) [compound 29] and report it.
Reply text: +++ (>50 = +++)

Inquiry: Find the recorded Peptide exchange belonging to 27 (GYLQGLVSF; listed as Homo sapiens) [compound 27] and report it.
Reply text: ++++ (>75% = ++++)

Inquiry: Find the recorded Peptide exchange belonging to 32 (PYQLNASLFTF; listed as Homo sapiens) [compound 32] and report it.
Reply text: ++++ (>75% = ++++)

Inquiry: Find the recorded Peptide exchange belonging to 55 (LYFEKGEYF; listed as Homo sapiens) [compound 55] and report it.
Reply text: ++++ (>75% = ++++)

Inquiry: Find the recorded Peptide exchange belonging to 33 (QYGKDFLTL; listed as Homo sapiens) [compound 33] and report it.
Reply text: +++ (>50 = +++)

Inquiry: Find the recorded Peptide exchange belonging to 44 (VYNTVSEGTHF; listed as Homo sapiens) [compound 44] and report it.
Reply text: +++ (>50 = +++)
